Molecular target: Sentrin-specific protease 7 (Homo sapiens, UniProt Q9BQF6);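 further: Luminescence-based dose-response confirmation of ultra-high-throughput screening hits, measuring inhibition of SENP7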
Sequence (Q9BQF6 whole entry): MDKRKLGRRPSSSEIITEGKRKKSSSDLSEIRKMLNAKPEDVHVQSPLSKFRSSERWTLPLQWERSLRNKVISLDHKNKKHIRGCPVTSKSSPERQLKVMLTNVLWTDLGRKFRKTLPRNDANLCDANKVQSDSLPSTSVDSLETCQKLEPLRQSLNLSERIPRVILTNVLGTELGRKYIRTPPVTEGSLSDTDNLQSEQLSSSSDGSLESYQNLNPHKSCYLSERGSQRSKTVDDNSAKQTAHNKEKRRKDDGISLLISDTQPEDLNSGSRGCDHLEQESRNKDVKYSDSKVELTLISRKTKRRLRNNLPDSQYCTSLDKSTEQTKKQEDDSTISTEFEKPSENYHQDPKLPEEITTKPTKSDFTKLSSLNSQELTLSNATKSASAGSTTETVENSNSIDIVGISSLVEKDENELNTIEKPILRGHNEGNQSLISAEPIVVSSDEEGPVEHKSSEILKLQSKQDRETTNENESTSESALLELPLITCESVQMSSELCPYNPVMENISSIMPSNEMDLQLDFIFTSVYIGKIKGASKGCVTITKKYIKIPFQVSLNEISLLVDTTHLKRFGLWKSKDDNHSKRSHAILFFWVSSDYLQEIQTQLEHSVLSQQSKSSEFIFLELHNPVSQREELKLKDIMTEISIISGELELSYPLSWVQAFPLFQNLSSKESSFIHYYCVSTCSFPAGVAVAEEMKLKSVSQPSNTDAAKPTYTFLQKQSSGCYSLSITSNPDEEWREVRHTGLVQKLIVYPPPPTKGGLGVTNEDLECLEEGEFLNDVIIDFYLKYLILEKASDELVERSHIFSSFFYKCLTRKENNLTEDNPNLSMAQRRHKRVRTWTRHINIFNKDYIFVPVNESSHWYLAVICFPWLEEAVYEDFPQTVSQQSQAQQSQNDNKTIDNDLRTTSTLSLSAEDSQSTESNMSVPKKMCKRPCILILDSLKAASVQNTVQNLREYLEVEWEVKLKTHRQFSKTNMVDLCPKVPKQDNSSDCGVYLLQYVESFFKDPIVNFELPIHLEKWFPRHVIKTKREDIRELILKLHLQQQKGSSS
Format: functional
Active and inactive are the calls of the source.
outcome_measure: IC50

Take a look at these entries with their results.
molecule	tested_on	observed
C=CCn1c2ccccc2c(=O)c2cc(C#Cc3ccccn3)ccc21	Sentrin-specific protease 7 (Homo sapiens, UniProt Q9BQF6)	5.93 µM (active)
N#Cc1c(N2CCCCC2)nc(N)c2c(N)nc(SCC(=O)O)cc12	Sentrin-specific protease 7 (Homo sapiens, UniProt Q9BQF6)	11.8 µM (active)
COc1ccccc1-n1c(=O)oc2ccc(Cl)cc2c1=O	Sentrin-specific protease 7 (Homo sapiens, UniProt Q9BQF6)	11.5 µM (active)

Parameters: items (list). Returns: IC50 for each item.
1. COc1ccc(NC(=O)c2csc3c2CCCC3)cc1
2. CN1CC[C@@]2(C)c3cc(O)ccc3N(C)C2O1 (some centres undefined)
3. Cc1csc(NC(=O)c2ccc3ccccc3n2)n1
4. O=C(Nc1ccc(-c2noc(-c3cccs3)n2)cc1)c1cccnc1

Completion:
7.25 µM (active)
14.3 µM (active)
5.25 µM (active)
7.2 µM (active)

Parameters: items (list). Returns: IC50 for each item.
1. CSc1ccc(/C=C/C(=O)c2ccc(O)cc2)cc1
2. CCO/C=C1\C(=O)N(c2ccccc2)C(=O)c2ccccc21

Completion:
["4.77 µM (active)", "36.9 µM (active)"]

---

Assay: Luminescence Cell-Based Dose Confirmation HTS to Identify Activators of 5'UTR Stem-Loop Driven Alpha-Synuclein mRNA Translation in H4 Neuroglioblastoma Cells. [Related pubchem assays: 1829 (Project Summary), 1814 (Primary HTS)]
Format: functional
Active and inactive are the calls of the source.
outcome_measure: EC50

Take a look at these entries with their results.
molecule	observed
CCc1ccc(NC(=O)c2cnc3scc(C)n3c2=O)cc1	9.98 µM (active)
Cc1nnnn1/C(=C\c1ccccc1)C(=O)OCC(=O)Nc1ccc(Cl)cc1F	> 120 µM (not active)
O=C(CSCc1ccccc1)Nc1ccc2c(c1)OCO2	26 µM (active)
COc1ccc(C(=O)C2=C(O)C(=O)N(c3ccccn3)C2c2ccc(C(C)C)cc2)cc1 (configuration not stated)	22.4 µM (active)
Cc1ccccc1OCC(=O)Nc1ccc2c(c1)OCCO2	51.8 µM (active)
CN1CCc2c(sc(/N=C/c3cc(Cl)ccc3O)c2C#N)C1	7.13 µM (active)

Now for another entry.
EC50 recorded for this molecule, `CSc1ccc(N2C(=O)NC3(CCCCC3)C2=O)cc1` , is 20.4 µM (active)

---

Provide the reported AC50 of each item.
Target: Voltage-gated inwardly rectifying potassium channel KCNH2 (Homo sapiens, UniProt Q12809);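 further: confirmatory quantitative high-throughput screen measuring inhibition of hERG channel activity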
Sequence (Q12809 whole entry): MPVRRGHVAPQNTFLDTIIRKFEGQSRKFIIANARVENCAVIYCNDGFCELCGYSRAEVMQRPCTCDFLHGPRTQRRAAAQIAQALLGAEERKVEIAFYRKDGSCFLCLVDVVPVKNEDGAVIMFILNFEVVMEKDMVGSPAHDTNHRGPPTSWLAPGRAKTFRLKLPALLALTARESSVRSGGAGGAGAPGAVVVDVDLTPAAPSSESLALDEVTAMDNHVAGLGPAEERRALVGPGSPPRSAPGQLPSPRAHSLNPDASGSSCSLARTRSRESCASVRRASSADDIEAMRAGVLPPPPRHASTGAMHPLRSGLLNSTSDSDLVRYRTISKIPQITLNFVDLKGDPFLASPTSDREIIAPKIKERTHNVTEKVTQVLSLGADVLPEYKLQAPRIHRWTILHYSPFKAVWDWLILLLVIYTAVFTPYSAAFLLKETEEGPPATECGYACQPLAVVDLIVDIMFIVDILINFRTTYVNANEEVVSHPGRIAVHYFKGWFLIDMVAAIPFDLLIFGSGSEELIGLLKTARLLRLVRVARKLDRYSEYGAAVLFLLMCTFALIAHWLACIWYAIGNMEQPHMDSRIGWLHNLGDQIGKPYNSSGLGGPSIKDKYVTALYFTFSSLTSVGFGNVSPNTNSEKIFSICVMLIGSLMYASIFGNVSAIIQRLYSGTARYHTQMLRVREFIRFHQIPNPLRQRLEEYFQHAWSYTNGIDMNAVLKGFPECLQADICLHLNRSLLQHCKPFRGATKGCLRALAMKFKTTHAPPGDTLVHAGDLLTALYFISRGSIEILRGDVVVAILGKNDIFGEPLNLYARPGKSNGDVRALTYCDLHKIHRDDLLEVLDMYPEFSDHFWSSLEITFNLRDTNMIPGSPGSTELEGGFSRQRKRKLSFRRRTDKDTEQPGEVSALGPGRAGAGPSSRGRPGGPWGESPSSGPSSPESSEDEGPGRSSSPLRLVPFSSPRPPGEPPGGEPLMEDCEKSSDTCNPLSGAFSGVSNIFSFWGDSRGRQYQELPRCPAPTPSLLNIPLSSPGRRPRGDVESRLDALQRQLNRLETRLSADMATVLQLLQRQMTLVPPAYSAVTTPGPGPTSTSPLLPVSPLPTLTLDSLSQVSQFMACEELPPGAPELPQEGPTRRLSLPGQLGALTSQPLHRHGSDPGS
Conditions: Potency

compound	tested_on	outcome_measure	observed
Oc1cc2c(cc1O)CN(C(=S)NCCc1ccc(Cl)cc1)CCC2 [CAPSAZEPINE]	Voltage-gated inwardly rectifying potassium channel KCNH2 (Homo sapiens, UniProt Q12809)	AC50	11.2 µM (inconclusive)
C=C(C)C(=O)OCCCCCCCCCC	Voltage-gated inwardly rectifying potassium channel KCNH2 (Homo sapiens, UniProt Q12809)	AC50	3.55 µM (inconclusive)
CC(O)[C@@H](O)[C@H]1CNc2nc(N)[nH]c(=O)c2N1 (some centres undefined)	Voltage-gated inwardly rectifying potassium channel KCNH2 (Homo sapiens, UniProt Q12809)	AC50	3.55 µM (inconclusive)

Now for another entry.
Sample `Oc1cccc(Cl)c1Cl` , system: Voltage-gated inwardly rectifying potassium channel KCNH2 (Homo sapiens, UniProt Q12809). Its AC50 is 5.01 µM (inconclusive)

---

Target: Galanin receptor type 3 (Homo sapiens, UniProt O60755)
Sequence (O60755 whole entry): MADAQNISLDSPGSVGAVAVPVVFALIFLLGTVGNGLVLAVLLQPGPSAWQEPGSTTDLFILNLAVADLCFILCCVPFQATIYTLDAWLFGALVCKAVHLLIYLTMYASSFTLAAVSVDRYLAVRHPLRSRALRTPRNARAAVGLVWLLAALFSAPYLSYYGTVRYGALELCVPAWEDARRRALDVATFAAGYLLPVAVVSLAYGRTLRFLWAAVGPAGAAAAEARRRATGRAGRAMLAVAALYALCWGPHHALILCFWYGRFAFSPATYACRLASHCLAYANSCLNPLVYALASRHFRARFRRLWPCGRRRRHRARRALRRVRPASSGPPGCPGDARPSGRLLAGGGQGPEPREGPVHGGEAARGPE
Assay: Fluorescence-based cell-based primary high throughput dose response assay to identify antagonists of the Galanin Receptor 3 (GalR3).
Assay type: functional
The source made the active and inactive calls.
The reply should name one outcome from active, inactive

compound	class_label
CC[n+]1c(/C=C2\SC(c3ccccc3C)=CN2C)sc2ccccc21	active
COc1cc(CCC(=O)OCC(=O)Nc2sccc2C(N)=O)cc(OC)c1OC	active
c1ccc(CNc2ncnc3ccccc23)cc1	active

In the following, a different compound is considered.
Prompt: Hi, sorry to bother you, what did the test record for N#Cc1c(N)nc2c3c(sc(=N)c2c1N)NC(=O)CC3c1ccccc1 (centres undefined) ?
Completion: inactive

---

Assay: Shn3 3'UTR reporter inhibitors, dose response, cell-based, Clone20 osteoblasts, firefly luciferase, cherry-picked (AID 624132);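 further: firefly luciferase luminescence from reporter carrying the Shn3 3'UTR in osteoblasts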
Format: functional
Calls of active or inactive are those of the source.
Provide the reported AC50 of each item.

Take a look at these entries with their results.
compound	outcome_measure	observed
Cc1ccc(NC(=O)CN(C)CC(=O)Nc2cccc(F)c2)cc1[N+](=O)[O-]	AC50	0.57 µM (active)
COc1ccc([C@H]2CC(=O)C=C(c3ccc4c(c3)OCO4)C2)cc1OC	AC50	58.3 µM (active)
O=C(NCc1ccc2c(c1)OCO2)c1nc(S(=O)(=O)Cc2ccccc2F)ncc1Cl	AC50	5.19 µM (active)
CCCC(=O)NC(c1ccc(C(C)C)cc1)c1ccc2cccnc2c1O (stereo not given)	AC50	0.47 µM (active)

Now for another entry.
AC50 recorded for this compound, `C=C(C)C(=O)O[C@H]1C/C(C)=C\C(=O)/C=C(\C)[C@H](O)[C@@H]2OC(=O)C(=C)[C@@H]21` , is 3.02 µM (active)

---

Target: Peroxisome proliferator-activated receptor gamma/Nuclear receptor coactivator 2 (Homo sapiens)
Sequence (P37231 whole entry): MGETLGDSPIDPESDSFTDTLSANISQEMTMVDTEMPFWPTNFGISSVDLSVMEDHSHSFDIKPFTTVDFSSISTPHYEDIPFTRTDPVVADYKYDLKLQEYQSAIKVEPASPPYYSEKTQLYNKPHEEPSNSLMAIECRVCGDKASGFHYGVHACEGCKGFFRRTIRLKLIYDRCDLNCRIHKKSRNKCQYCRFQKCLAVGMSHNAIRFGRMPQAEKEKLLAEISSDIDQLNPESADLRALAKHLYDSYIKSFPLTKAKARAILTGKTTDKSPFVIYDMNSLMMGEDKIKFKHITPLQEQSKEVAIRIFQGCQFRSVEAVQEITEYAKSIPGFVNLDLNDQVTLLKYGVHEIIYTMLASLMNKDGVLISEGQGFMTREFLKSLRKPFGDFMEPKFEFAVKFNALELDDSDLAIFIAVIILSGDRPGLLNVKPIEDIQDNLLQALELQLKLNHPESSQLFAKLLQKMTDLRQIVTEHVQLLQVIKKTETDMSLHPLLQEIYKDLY
Sequence (Q15596 whole entry, further chain): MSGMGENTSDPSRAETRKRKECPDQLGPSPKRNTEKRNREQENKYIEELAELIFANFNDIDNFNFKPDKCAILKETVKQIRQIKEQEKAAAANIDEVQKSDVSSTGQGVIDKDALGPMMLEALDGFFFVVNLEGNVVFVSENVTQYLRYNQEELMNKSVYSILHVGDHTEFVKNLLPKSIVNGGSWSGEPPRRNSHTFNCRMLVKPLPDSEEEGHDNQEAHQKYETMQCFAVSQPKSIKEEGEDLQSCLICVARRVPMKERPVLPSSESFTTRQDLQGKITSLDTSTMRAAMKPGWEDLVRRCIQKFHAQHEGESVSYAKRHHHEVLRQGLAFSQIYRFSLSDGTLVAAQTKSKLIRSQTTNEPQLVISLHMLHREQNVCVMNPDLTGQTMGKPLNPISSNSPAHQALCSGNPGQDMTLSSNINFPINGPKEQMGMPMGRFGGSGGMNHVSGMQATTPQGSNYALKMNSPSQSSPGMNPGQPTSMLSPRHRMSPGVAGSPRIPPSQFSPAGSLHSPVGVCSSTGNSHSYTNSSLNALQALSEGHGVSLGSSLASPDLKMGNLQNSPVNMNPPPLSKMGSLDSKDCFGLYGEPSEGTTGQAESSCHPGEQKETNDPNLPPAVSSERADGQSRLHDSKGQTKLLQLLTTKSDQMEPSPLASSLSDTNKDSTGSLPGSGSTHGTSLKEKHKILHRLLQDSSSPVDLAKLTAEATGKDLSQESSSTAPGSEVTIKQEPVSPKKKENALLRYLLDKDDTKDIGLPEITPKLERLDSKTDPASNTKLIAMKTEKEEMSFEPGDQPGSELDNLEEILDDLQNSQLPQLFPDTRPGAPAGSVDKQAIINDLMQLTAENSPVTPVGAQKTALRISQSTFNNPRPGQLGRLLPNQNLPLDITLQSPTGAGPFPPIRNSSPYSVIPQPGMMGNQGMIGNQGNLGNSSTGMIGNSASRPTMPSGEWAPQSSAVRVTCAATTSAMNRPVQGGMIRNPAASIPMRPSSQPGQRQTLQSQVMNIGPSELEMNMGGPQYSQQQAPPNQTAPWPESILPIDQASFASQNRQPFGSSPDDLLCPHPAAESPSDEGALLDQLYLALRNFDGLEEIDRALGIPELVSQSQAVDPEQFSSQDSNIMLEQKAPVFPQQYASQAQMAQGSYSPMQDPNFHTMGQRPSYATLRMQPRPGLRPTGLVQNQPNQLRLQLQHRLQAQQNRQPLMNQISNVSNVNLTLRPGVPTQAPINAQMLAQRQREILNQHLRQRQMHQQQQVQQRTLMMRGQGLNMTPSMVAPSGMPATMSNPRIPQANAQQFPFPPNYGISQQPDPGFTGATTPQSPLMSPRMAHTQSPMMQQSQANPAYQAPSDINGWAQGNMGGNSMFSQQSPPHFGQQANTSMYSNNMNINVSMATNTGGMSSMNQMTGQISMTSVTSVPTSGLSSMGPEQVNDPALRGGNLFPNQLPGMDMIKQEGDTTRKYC
Assay: TR-FRET dose response biochemical High Throughput Screening assay for agonists of the steroid receptor coactivator 2 (SRC-2) recruitment by the peroxisome proliferator-activated receptor gamma (PPAR gamma): non-selective agonists. [Related pubchem assays: 1297, 1032 ]
Type: functional
Active and inactive are the calls of the source.
outcome_measure: EC50

smiles_code	EC50
Cc1cc2ccccc2n1CCNC(=O)c1ccc(S(=O)(=O)N2CCCCC2)cc1	6.53 µM (active)

Parameters: items (list). Returns: EC50 for each item.
1. Cn1c(=S)[nH]c2scc(-c3cccs3)c2c1=O
2. CSc1oc(-c2ccccc2)nc1S(=O)(=O)c1ccc(C)cc1
3. COc1cc(-n2c(=S)[nH]c3ccc(C)cc3c2=O)c(Cl)cc1Cl
4. C=CCSC1=Nc2cc(OC)c(OC)cc2C2=NC(=O)CN12
5. CSc1c(SCc2ccccc2)cnn(Cc2ccccc2)c1=O

Completion:
["11.4 µM (not active)", "> 79.4 µM (not active)", "> 79.4 µM (not active)", "> 79.4 µM (not active)", "8.09 µM (active)"]

---

Test: NIH-3T3 fibroblast cytotoxicity, dose response, cytotoxicity control, cell-based, fluorescence, Alamar Blue, secondary assay (AID 2327);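 further: NIH-3T3 mouse fibroblasts cultured with fluconazole at 8 µg/mL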
Type: functional
Calls of active or inactive are those of the source.
outcome_measure: EC50

compound	EC50
O=C(NNc1nc2ccc(Cl)cc2s1)c1cc(-c2cccs2)nc2ccccc12	19.7 µM (active)
COc1cc(/C=N/Nc2ccc(F)cc2F)cc(OC)c1OC	20.8 µM (active)
O=c1c(F)cn(C2CCCO2)c(=O)n1Cc1c(F)cccc1Cl (configuration not stated)	> 150 µM (inactive)
CCCCCc1ccc(OCCOCC[n+]2cn(C)c3ccccc32)c(CCCCC)c1	> 150 µM (inactive)
Cc1ccc(SC/C(O)=C(\C#N)c2nc3ccccc3s2)cc1	138 µM (active)
S=C(Nc1ccc(Cl)cc1)c1nc2ccccc2[nH]1	19 µM (active)

EC50 recorded for this compound, `CCOC(=O)c1ccc(Oc2nc(NC(C)(C)C)nc(N(C)C)n2)cc1` , is > 150 µM (inactive)

---

Target: E3 ubiquitin-protein ligase XIAP (Homo sapiens, UniProt P98170)
Sequence (P98170 whole entry): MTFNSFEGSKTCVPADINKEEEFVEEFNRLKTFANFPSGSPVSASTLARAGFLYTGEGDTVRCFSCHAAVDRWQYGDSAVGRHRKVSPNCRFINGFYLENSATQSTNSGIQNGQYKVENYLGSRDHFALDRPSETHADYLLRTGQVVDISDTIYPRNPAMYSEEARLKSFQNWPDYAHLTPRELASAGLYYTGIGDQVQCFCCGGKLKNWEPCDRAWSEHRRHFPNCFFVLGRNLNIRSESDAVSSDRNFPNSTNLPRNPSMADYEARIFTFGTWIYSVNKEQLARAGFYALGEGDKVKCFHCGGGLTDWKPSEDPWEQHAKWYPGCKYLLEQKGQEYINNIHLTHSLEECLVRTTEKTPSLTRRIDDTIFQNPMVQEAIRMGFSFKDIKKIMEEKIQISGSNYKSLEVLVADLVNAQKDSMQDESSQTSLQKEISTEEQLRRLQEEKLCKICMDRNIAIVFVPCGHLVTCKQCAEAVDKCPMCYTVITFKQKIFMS
Assay: Counter Screen using XIAP-Bir3 for Chemical Antagonists of Bir1/2 domains of IAP-family anti-apoptotic proteins. [Related pubchem assays (depositor defined):AID1018, AID1449, AID1514, AID1638, AID1749, AID1750, AID488957, AID488963]
Activity calls are given as the source filed them.
outcome_measure: IC50

Take a look at these entries with their results.
compound	IC50
CCN1C(=O)C(=CNc2ccc(N3CCOCC3)cc2)C(=O)N(CC)C1=S	> 20 µM (inactive)
COc1ccc(-n2c(SCC(=O)Nc3cc(C)on3)nc3c(c2=O)SCC3)cc1	> 100 µM (inactive)
O=C(NCc1cccs1)C1CC(c2ccccc2O)=NO1 (centres undefined)	> 100 µM (inactive)

Now for another entry.
IC50 recorded for this compound, CCN1C(=O)c2ccccc2[S+]([O-])c2ccc(C(=O)N3CCCCCC3)cc21 (centres undefined) , is > 100 µM (inactive)

---

Provide the reported EC50 of each item.
Test: cytotoxicity toward NIH3T3 fibroblasts, dose response, counter-screen, cell-based, ATP luminescence, mouse fibroblasts (AID 2010);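 further: cells exposed to compound for about 90 hours before reading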
Format: functional
Active and inactive are the calls of the source.

compound	EC50
Cc1cc(S(=O)(=O)Nc2ccc(C(=O)NCC(c3ccco3)N3CCCC3)cc2)ccc1F (centres undefined)	> 60 µM (not active)

Parameters: items (list). Returns: EC50 for each item.
1. CC(C)(C)NS(=O)(=O)c1ccc(NC(=O)c2cc(-c3ccccc3)nc3ccccc23)cc1
2. COc1ccc2ccccc2c1CNC(C)CCc1ccccc1 (centres undefined)
3. C/C(=N\NC(N)=S)C1=CCC2C3CC[C@H]4CC(O)CC[C@]4(C)C3CC[C@]12C (some centres undefined)
4. CN1CCN(CCOc2ccc(Cc3ccccc3)cc2)CC1
5. COc1ccccc1C(=O)NNC(=S)NC(=O)c1cc(OC)c(OC)c(OC)c1
6. CC(C)(C)c1ccc(-c2nc3c(C#N)c(-c4ccc5c(c4)OCO5)ccn3n2)cc1
7. Cc1nc(NC(=N)N)nc2c(C)cccc12

Completion:
1. > 60 µM (not active)
2. > 60 µM (not active)
3. 9.97 µM (active)
4. > 60 µM (not active)
5. 6.32 µM (active)
6. > 60 µM (not active)
7. > 60 µM (not active)

EC50 recorded for this compound, `CN(C)CCn1c(=O)n(Cc2ccccc2)c(=O)c2c3c(sc21)CCCCC3` , is > 60 µM (not active)
